Target: human GLP-1 receptor (human, UniProt P43220)
Experiment: cell-based or functional assay
Starred links: 1 amine or outer side, 2 acyl side, 3 side chain; linkers in the order of their positions; H or OH if unused. Non-standard residues stand in square brackets, D forms with d. Groups on a side chain read outwards from the residue. No end group written: not given here. *: point of attachment. C20 diacid = O=C(O)CCCCCCCCCCCCCCCCCCC(=O)*; C18 diacid = O=C(O)CCCCCCCCCCCCCCCCC(=O)*; γGlu = O=C(O)[C@H](CCC(=O)[*:2])N[*:1]; αMeF = C[C@](N)(Cc1ccccc1)C(=O)O; AEEA = NCCOCCOCC(=O)O; Aib = CC(C)(N)C(=O)O
metric-name: hGLP-1R EC50 (pM)
Response body: numeric value in pM, unit text excluded.

Exam item: What does the record list as hGLP-1R EC50 (pM) for H[Aib]HGS[αMeF]TSDVSK[Aib]LDSRAAK([AEEA-AEEA-γGlu-C18 diacid])D[αMeF]VQ[Aib]IANT-NH2 [Peptide 296] ?
Marked response: 64.1

Exam item: // query: H[Aib]HGS[αMeF]TSDVSK[αMeF]LDSQAAK([AEEA-AEEA-γGlu-γGlu-C20 diacid])D[αMeF]VQ[Aib]IANT-NH2 [Peptide 256]
Marked response: 346

Exam item: // query: H[Aib]HGS[αMeF]TSDVSK[αMeF]LDSRAAK([AEEA-γGlu-C18 diacid])D[αMeF]VQ[Aib]IANT-NH2 [Peptide 262]
Marked response: 13

Exam item: // query: H[Aib]HGS[αMeF]TSDVSK[αMeF]LDSRAAK([AEEA-AEEA-γGlu-C20 diacid])D[αMeF]VQ[Aib]IANT-NH2 [Peptide 280]
Marked response: 78.3

Exam item: // query: H[Aib]HGS[αMeF]TSDVSK[αMeF]LDSRAAK([AEEA-γGlu-γGlu-C18 diacid])D[αMeF]VQ[Aib]IANT-NH2 [Peptide 274]
Marked response: 27.1

Values from patent US12630600B2
